Target: GST-tagged truncated LRRK2 (Homo sapiens, UniProt Q5S007)
Construct: GST-tagged truncated LRRK2 from Invitrogen (Cat # PV4874); GST
Sequence (Q5S007 970-2527 limits assumed): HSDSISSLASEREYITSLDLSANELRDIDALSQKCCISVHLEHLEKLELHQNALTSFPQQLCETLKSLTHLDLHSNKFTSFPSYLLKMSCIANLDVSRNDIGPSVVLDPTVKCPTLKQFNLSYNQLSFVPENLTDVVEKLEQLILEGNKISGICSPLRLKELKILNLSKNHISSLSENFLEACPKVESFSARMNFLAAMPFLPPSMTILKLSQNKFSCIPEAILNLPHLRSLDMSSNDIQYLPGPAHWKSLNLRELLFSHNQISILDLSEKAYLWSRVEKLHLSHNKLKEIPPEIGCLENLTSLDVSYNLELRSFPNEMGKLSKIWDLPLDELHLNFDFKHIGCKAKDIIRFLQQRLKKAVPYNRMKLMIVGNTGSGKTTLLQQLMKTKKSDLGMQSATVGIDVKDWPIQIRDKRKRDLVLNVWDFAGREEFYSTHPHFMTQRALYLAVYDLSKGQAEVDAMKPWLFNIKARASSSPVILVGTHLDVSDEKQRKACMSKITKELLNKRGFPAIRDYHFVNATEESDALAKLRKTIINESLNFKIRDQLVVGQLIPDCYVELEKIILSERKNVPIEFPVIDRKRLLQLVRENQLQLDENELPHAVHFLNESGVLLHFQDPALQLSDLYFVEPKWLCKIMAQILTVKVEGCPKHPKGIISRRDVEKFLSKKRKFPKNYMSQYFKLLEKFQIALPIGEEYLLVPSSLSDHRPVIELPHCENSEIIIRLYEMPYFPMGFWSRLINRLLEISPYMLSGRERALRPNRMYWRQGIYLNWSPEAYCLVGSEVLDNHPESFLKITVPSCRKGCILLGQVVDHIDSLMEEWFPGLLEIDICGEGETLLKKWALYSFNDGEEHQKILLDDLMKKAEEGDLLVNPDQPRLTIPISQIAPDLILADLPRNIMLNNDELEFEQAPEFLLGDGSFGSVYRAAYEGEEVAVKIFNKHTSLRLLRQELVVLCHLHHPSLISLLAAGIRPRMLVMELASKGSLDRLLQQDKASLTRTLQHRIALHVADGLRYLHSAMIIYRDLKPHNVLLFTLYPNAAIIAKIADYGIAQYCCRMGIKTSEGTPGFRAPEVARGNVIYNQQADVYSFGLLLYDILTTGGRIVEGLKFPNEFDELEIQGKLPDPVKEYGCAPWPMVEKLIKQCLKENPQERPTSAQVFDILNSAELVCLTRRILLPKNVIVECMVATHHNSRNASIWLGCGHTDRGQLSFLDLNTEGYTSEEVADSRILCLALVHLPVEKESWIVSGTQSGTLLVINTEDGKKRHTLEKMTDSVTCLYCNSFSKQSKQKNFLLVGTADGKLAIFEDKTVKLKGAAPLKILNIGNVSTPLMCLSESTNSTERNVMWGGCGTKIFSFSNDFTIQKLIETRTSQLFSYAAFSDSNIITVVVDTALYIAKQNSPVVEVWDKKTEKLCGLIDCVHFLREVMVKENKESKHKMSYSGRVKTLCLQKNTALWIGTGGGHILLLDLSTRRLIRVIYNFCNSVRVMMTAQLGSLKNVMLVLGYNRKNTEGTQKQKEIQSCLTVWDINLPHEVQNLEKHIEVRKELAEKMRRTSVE
Assay: LRRK2 kinase assay (Lantha Screen)
Settings: 1 mM ATP (head); a = geometric mean of >=4 determinations, b = single determination; read-out: LRRK2 LANTHA EC50 at 1 mM ATP; Geometric mean of 2-3 determinations unless otherwise indicated
reported metric: EC50 (nM)

# example entries with known answers
• Fc1cc(F)c(F)c(-c2c[nH]c3nccc(N4CCOCC4)c23)c1 = 69.7
• Cn1cc(-c2c[nH]c3nccc(N4C[C@H]5CC[C@@H](C4)O5)c23)cn1 = 221
• N#Cc1cccc(-c2c[nH]c3nccc(N4CCOCC4)c23)c1F = 5.17

(1) N#Cc1cccc(-c2c[nH]c3nccc(N4CCCOCC4)c23)c1
(2) Fc1ccccc1-c1c[nH]c2nccc(N3CCOCC3)c12
(3) Fc1ccc(Cl)cc1-c1c[nH]c2nccc(N3CCOCC3)c12
Ask: Place the items in sequence of falling EC50. Record the ranking as a list of labels in the requested order.
Reply: 1, 3, 2

* * *

Molecular target: GST-tagged truncated LRRK2 (Homo sapiens, UniProt Q5S007)
Construct: GST-tagged truncated LRRK2 from Invitrogen (Cat # PV4874); GST
Assay: LRRK2 kinase assay (Lantha Screen)
Conditions: 1 mM ATP (head); a = geometric mean of >=4 determinations, b = single determination; read-out: LRRK2 LANTHA EC50 at 1 mM ATP; Geometric mean of 2-3 determinations unless otherwise indicated
Method: LRRK2 kinase activity was measured using Lantha Screen technology from Invitrogen. […] Upon completion, the assay was stopped and detected with a terbium labeled anti-phospho-ERM antibody (Invitrogen, cat # PR8975A). […] After an incubation of 1 hour at room temperature, the plate was read on an Envision with an excitation wavelength of 340 nm and a reading emission at both 520 nm and 495 nm. […]
pEC50: −log10 of the molar value.
reported metric: pEC50

# example entries with known answers
• Cc1cc(F)cc(-c2c[nH]c3ncc(C#N)c(N4CCOCC4)c23)c1 = 7.53
• Cn1cc(-c2c[nH]c3nccc(C4=CCOCC4)c23)cn1 = 7.22
• Fc1ccc(-c2c[nH]c3nccc(N4CCOCC4)c23)c(F)c1 = 6.83

(a) Cn1cc(-c2c[nH]c3nccc(N4CCC(F)(F)C4)c23)cn1
(b) Fc1cccc(-c2c[nH]c3nccc(N4CCOCC4)c23)c1F
Ask: Please indicate which has the smaller reported pEC50: a , or b . Choose, then provide that item's label.
Reply: a

* * *

Target: GST-tagged truncated LRRK2 (Homo sapiens)
Construct: GST-tagged truncated LRRK2 from Invitrogen (Cat # PV4874); GST
Assay: LRRK2 kinase assay (Lantha Screen)
Details: 1 mM ATP (head); a = geometric mean of >=4 determinations, b = single determination; read-out: LRRK2 LANTHA EC50 at 1 mM ATP; Geometric mean of 2-3 determinations unless otherwise indicated
pEC50: −log10 of the molar value.
reported metric: pEC50

# example entries with known answers
• CN(C)c1c(C#N)cnc2[nH]cc(-c3cccc(C#N)c3F)c12 = 7.59
• C[C@@H]1CN(c2ccnc3[nH]cc(-c4cccc(C#N)c4)c23)CCO1 = 7.51
• N#Cc1cc(CO)cc(-c2c[nH]c3nccc(N4CCOCC4)c23)c1 = 7.29
• Fc1cccc(-c2c[nH]c3nccc(N4CCOCC4)c23)c1 = 7.46
• c1cc(N2CCOCC2)c2c(-c3cn[nH]c3)c[nH]c2n1 = 7.52
• N#Cc1ccc(F)c(-c2c[nH]c3nccc(N4CCOCC4)c23)c1 = 6.84

(P) COC(=O)c1cnc2[nH]cc(-c3cccc(C#N)c3)c2c1N1CCOCC1
(Q) N#Cc1cc(-c2c[nH]c3nccc(N4CCOCC4)c23)c[nH]1
Ask: Please indicate which has the smaller reported pEC50: P , or Q . Choose, then provide that item's label.
Reply: P
